tested on: α7 integrin (LacZ reporter in α7βgal+/− myoblasts); assay: Myoblast α7+/LacZ integrin FDG assay (Burkin assay in myoblasts, 96-well); assay type: cell-based, mouse; settings: 10 uM; α7+/LacZ myoblasts, 96-well
Mark each entry true if its Burkin Assay in Myoblasts, signal relative to DMSO sits below 0.9, and false for all others.

>>> class_name("N#Cc1ccc(Sc2nc3ccccc3[nH]2)cc1C#N [MLS000110418-01]")
"false"

Could you please tell me whether Burkin Assay in Myoblasts, signal relative to DMSO recorded for COc1cc([N+](=O)[O-])cc(/C=N/NC(=O)C(O)(c2ccccc2)c2ccccc2)c1O [MLS001183575-01] is less than 0.9?
true

Could you please tell me whether Burkin Assay in Myoblasts, signal relative to DMSO recorded for Cn1ccc(C(=O)Nc2cccnc2Cl)n1 [MLS001147478-01] is less than 0.9?
false

Could you please tell me whether Burkin Assay in Myoblasts, signal relative to DMSO recorded for Cc1cc(C)cc(OCC(=O)N/N=C/c2ccccn2)c1 [MLS000710669-01] is less than 0.9?
false

Could you please tell me whether Burkin Assay in Myoblasts, signal relative to DMSO recorded for CCN(CC)C(=O)c1sc2nc(-c3ccc(OC)cc3)cn2c1C [MLS000089464-01] is less than 0.9?
true

Could you please tell me whether Burkin Assay in Myoblasts, signal relative to DMSO recorded for O=C(Cn1cccc1C(=O)c1ccccc1)NCCCc1ccccc1 [MLS001110618-01] is less than 0.9?
false

Could you please tell me whether Burkin Assay in Myoblasts, signal relative to DMSO recorded for C/C(=N\NC(=O)c1cc(C)oc1C)c1ccc2ccccc2c1 [MLS000912258-01] is less than 0.9?
true

====

Below, each entry is listed alongside its reported Burkin Assay in Myotubes, α7 integrin LacZ reporter signal relative to DMSO.
tested on: α7 integrin (LacZ reporter in α7+/LacZ myotubes); experiment: Myotube α7 integrin FDG assay (Burkin assay in myotubes, 96-well); type: cell-based, mouse; conditions: myotubes, 10 uM
The response must contain the number and no unit.

Record request: Burkin Assay in Myotubes, α7 integrin LacZ reporter signal relative to DMSO value, item NS(=O)(=O)c1ccc(NC(=O)c2ccc(CNS(=O)(=O)c3cc(C(F)(F)F)ccc3Cl)cc2)cc1 [MLS000393110-01]
0.9816

Record request: Burkin Assay in Myotubes, α7 integrin LacZ reporter signal relative to DMSO value, item CN(CC(=O)Nc1cccc(F)c1)C(=O)c1ccc(-c2ccc(Cl)cc2)o1 [MLS001078811-01]
0.8773

Record request: Burkin Assay in Myotubes, α7 integrin LacZ reporter signal relative to DMSO value, item O=C(Nc1cc(-c2nc3ccccc3s2)ccc1Cl)c1ccc2c(c1)OCO2 [MLS000560266-01]
1.185

Record request: Burkin Assay in Myotubes, α7 integrin LacZ reporter signal relative to DMSO value, item CS(=O)(=O)c1ccc(Cl)c(NC(=O)CSc2nncn2-c2ccccc2)c1 [MLS001177364-01]
1.213

Record request: Burkin Assay in Myotubes, α7 integrin LacZ reporter signal relative to DMSO value, item Cc1ccc(C(=O)N2CCN(S(=O)(=O)N3CCOCC3)CC2)cc1 [MLS000663185-01]
1.0708

Record request: Burkin Assay in Myotubes, α7 integrin LacZ reporter signal relative to DMSO value, item O=c1oc2c(-c3cccc(F)c3)cc(O)cc2s1 [MLS000680049-01]
1.22

Reference source: patent US9980943B2
